Tested on: Proteus mirabilis
Assay: Antibacterial activity against Proteus mirabilis assessed as diameter of inhibition zone measured after 24 hrs by agar disc diffusion method; note: test concentration or dose not given here
Assay type: functional
MEASUREMENT_KIND: diameter of the inhibition zone (DIZ) (mm)

> print(dat)
                                test.smiles  limit.operator  measurement
1  N[C@H]1C[C@@H](C(=O)NO)N(C(=O)c2ccc(C#Cc3ccccc3)cc2)C1               =            8
2  O=C(NO)[C@H]1[C@H](O)[C@H](O)CN1C(=O)c1ccc(C#Cc2ccc(CN3CCSCC3)cc2)cc1               <            6
3  CN(C)c1ccc(C#Cc2ccc(C(=O)N3C[C@@H](O)C[C@H]3C(=O)NO)cc2)cc1               =            8
4  O=C(NO)[C@@H]1CCCN1C(=O)c1ccc(C#Cc2ccc(CN3CCS(=O)(=O)CC3)cc2)cc1               =            9
5  O=C(NO)[C@@H]1CCCN1C(=O)c1ccc(C#Cc2ccc(CN3CCSCC3)cc2)cc1               =           12

---

// MIC lookup, one value per entry
Tested on: Escherichia coli
Experiment: Antibacterial activity against Escherichia coli D22 measured after 20 hrs by microdilution method
Assay type: functional
Conditions: D22, 20 h
MEASUREMENT_KIND: MIC (µM)

> print(dat)
                                test.smiles  target.under.test  measurement.kind  value.unit  measurement
1  O=C(NO)[C@@H]1C[C@@H](O)CN1C(=O)c1ccc(C#Cc2ccccc2)cc1   Escherichia coli               MIC          µM          128
2  Nc1ccc(C#Cc2ccc(C(=O)N3C[C@@H](O)C[C@H]3C(=O)NO)cc2)cc1   Escherichia coli               MIC          µM          128
3  O=C(NO)[C@@H]1CCCN1C(=O)c1ccc(C#Cc2ccc(CN3CCSCC3)cc2)cc1   Escherichia coli               MIC          µM            8
4  O=C(NO)[C@@H]1C[C@H](F)CN1Cc1ccc(C#Cc2ccccc2)cc1   Escherichia coli               MIC          µM          128
5  Nc1ccc(C#Cc2ccc(C(=O)N3C[C@H](O)C[C@H]3C(=O)NO)cc2)cc1   Escherichia coli               MIC          µM          128
6  O=C(NO)[C@@H]1C[C@H](O)CN1C(=O)c1ccc(C#Cc2ccc(CN3CCCCC3)cc2)cc1   Escherichia coli               MIC          µM           32
7  O=C(NO)[C@@H]1C[C@H](O)CN1C(=O)c1ccc(C#Cc2ccc(CN3CCCC3)cc2)cc1   Escherichia coli               MIC          µM           64
8  O=C(NO)[C@H]1[C@H](O)[C@H](O)CN1C(=O)c1ccc(C#Cc2ccc(CN3CCSCC3)cc2)cc1   Escherichia coli               MIC          µM          128
9  O=C(NO)[C@@H]1C[C@H](O)CN1C(=O)c1ccc(C#Cc2ccccc2)cc1   Escherichia coli               MIC          µM           64

---

Tested on: Klebsiella oxytoca
Assay: Antibacterial activity against Klebsiella oxytoca assessed as diameter of inhibition zone measured after 24 hrs by agar disc diffusion method; note: test concentration or dose not given here
Format: functional
MEASUREMENT_KIND: diameter of the inhibition zone (DIZ) (mm)

> print(dat)
                                test.smiles  value.unit  limit.operator  measurement
1  O=C(NO)[C@@H]1C[C@H](O)CN1C(=O)c1ccc(C#Cc2ccc(CN3CCC(O)CC3)cc2)cc1          mm               <            6
2  O=C(NO)[C@@H]1CCCN1C(=O)c1ccc(C#Cc2ccc(CN3CCOCC3)cc2)cc1          mm               =            9
3  COc1ccc(C#Cc2ccc(C(=O)N3C[C@H](O)C[C@H]3C(=O)NO)cc2)cc1          mm               =            7
4  O=C(NO)[C@@H]1C[C@H](O)CN1C(=O)c1ccc(C#Cc2ccc(CN3CCOCC3)cc2)cc1          mm               =            8
5  O=C(NO)[C@H]1[C@H](O)[C@H](O)CN1C(=O)c1ccc(C#Cc2ccc(CN3CCSCC3)cc2)cc1          mm               =            7
6  O=C(NO)[C@@H]1CCCN1C(=O)c1ccc(C#Cc2ccccc2)cc1          mm               =            8
7  CCCCCc1ccc(C#Cc2ccc(C(=O)N3C[C@H](O)C[C@H]3C(=O)NO)cc2)cc1          mm               =            7
8  O=C(NO)[C@@H]1C[C@H](O)CN1C(=O)c1ccc(C#Cc2ccc(CN3CCSCC3)cc2)cc1          mm               =           11
9  O=C(NO)[C@H]1[C@H](O)[C@H](O)CN1C(=O)c1ccc(C#Cc2ccc(CN3CCOCC3)cc2)cc1          mm               =            8

---

Assay: Inhibition of Escherichia coli LpxC C63A mutant using UDP-3-O-[(R)-3-hydroxymyristoyl]-N-acetylglucosamine as substrate measured after 30 mins by fluorescence based microplate assay
// IC50 lookup, one value per entry
MEASUREMENT_KIND: IC50 (µM)

> print(dat)
                                test.smiles  limit.operator  measurement
1  O=C(NO)[C@@H]1C[C@@H](O)CN1C(=O)c1ccc(C#Cc2ccccc2)cc1               =          103
2  O=C(NO)[C@@H]1CCCN1C(=O)c1ccc(C#Cc2ccc(CN3CCCCC3)cc2)cc1               >          200
3  O=C(NO)[C@H]1O[C@@H](c2ccc(C#Cc3ccc(CN4CCOCC4)cc3)cc2)[C@@H](O)[C@H]1O               >          200
4  O=C(NO)[C@@H]1C[C@H](O)CN1C(=O)c1ccc(C#Cc2ccc(CN3CCSCC3)cc2)cc1               =         32.8

---

Test system: Proteus vulgaris
Experiment: Antibacterial activity against Proteus vulgaris assessed as diameter of inhibition zone measured after 24 hrs by agar disc diffusion method; note: test concentration or dose not given here
Assay type: functional
// diameter of the inhibition zone (DIZ) lookup, one value per entry
MEASUREMENT_KIND: diameter of the inhibition zone (DIZ) (mm)

> print(dat)
                                 test.smiles                       measurement.kind  limit.operator  measurement
 1  O=C(NO)[C@H]1[C@H](O)[C@H](O)CN1C(=O)c1ccc(C#Cc2ccc(CN3CCOCC3)cc2)cc1  diameter of the inhibition zone (DIZ)               <            6
 2  O=C(NO)[C@@H]1C[C@@H](O)CN1Cc1ccc(C#Cc2ccc(CN3CCOCC3)cc2)cc1  diameter of the inhibition zone (DIZ)               <            6
 3  O=C(NO)[C@@H]1C[C@H](O)CN1C(=O)c1ccc(C#Cc2ccc(CN3CCSCC3)cc2)cc1  diameter of the inhibition zone (DIZ)               =            9
 4  O=C(NO)[C@@H]1C[C@H](O)CN1C(=O)c1ccc(C#Cc2ccc(CN3CCCCC3)cc2)cc1  diameter of the inhibition zone (DIZ)               =           13
 5  O=C(NO)[C@@H]1CCCN1Cc1ccc(C#Cc2ccc(CN3CCSCC3)cc2)cc1  diameter of the inhibition zone (DIZ)               <            6
 6  Nc1ccc(C#Cc2ccc(C(=O)N3CCC[C@H]3C(=O)NO)cc2)cc1  diameter of the inhibition zone (DIZ)               <            6
 7  N[C@H]1C[C@@H](C(=O)NO)N(C(=O)c2ccc(C#Cc3ccccc3)cc2)C1  diameter of the inhibition zone (DIZ)               <            6
 8  COc1ccc(C#Cc2ccc(C(=O)N3C[C@H](O)C[C@H]3C(=O)NO)cc2)cc1  diameter of the inhibition zone (DIZ)               =            8
 9  O=C(NO)[C@@H]1CCCN1C(=O)c1ccc(C#Cc2ccc(CN3CCS(=O)(=O)CC3)cc2)cc1  diameter of the inhibition zone (DIZ)               =           10
10  CCCCCc1ccc(C#Cc2ccc(C(=O)N3C[C@H](O)C[C@H]3C(=O)NO)cc2)cc1  diameter of the inhibition zone (DIZ)               =            9
11  O=C(NO)[C@@H]1CCCN1C(=O)c1ccc(C#Cc2ccc(CN3CCSCC3)cc2)cc1  diameter of the inhibition zone (DIZ)               =           10
12  O=C(NO)[C@H]1CCCN1C(=O)c1ccc(C#Cc2ccc(CN3CCOCC3)cc2)cc1  diameter of the inhibition zone (DIZ)               <            6
